// pIC50 lookup, one value per entry
# tested_on: Protein deacetylase HDAC6 (Homo sapiens, UniProt Q9UBN7)
# Sequence (Q9UBN7 whole entry): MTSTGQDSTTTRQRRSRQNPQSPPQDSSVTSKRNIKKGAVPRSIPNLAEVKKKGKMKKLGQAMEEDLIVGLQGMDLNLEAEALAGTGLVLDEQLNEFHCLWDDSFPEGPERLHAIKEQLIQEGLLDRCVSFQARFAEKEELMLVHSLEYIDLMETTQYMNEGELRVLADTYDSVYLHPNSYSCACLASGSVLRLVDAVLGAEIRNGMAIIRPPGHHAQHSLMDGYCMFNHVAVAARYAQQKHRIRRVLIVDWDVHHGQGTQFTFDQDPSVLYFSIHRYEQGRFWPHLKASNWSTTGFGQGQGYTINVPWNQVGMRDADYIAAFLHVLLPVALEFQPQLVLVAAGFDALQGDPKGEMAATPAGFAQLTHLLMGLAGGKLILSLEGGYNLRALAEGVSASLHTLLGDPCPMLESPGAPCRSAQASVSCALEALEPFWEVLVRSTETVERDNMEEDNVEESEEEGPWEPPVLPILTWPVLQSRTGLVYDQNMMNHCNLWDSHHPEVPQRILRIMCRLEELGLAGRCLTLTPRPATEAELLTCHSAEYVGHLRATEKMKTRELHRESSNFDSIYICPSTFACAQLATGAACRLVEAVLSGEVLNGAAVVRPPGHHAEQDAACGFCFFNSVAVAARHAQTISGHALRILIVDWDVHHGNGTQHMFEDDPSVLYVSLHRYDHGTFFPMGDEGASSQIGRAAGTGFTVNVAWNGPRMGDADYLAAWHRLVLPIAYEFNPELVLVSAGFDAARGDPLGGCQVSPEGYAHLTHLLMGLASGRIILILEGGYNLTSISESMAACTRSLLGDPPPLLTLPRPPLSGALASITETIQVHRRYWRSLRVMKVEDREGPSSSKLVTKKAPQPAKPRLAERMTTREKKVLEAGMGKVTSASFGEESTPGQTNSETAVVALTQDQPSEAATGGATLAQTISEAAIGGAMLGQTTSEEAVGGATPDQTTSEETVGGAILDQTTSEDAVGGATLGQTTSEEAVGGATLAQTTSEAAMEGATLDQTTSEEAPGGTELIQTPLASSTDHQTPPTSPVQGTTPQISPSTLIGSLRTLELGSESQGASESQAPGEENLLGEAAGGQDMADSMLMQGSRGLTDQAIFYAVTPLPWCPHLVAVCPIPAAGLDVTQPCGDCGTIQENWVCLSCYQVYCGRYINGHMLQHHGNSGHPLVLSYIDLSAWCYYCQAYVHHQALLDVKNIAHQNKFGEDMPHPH
# test_method_notes: Inhibition of HDAC6 in human HeLa cell nuclear extract after 30 mins by fluorescence microplate reader
Units for pIC50: none; it is -log10 of a concentration expressed in mol/L.

1) CC[C@H](C)[C@@H](CN1Cc2cc(OCC(=O)NO)ccc2C[C@H]1C(=O)Nc1ccc(OC)cc1)NC(=O)OC(C)(C)C
7.03
2) CC[C@H](C)[C@H](NC(=O)C1CCNCC1)C(=O)N1Cc2cc(OCC(=O)NO)ccc2C[C@H]1C(=O)Nc1ccc(OC)cc1.Cl
6.77

What value of pIC50 has been recorded for this entry: CC[C@H](C)[C@H](NC(=O)OC(C)(C)C)C(=O)N1Cc2cc(OCC(=O)NO)ccc2C[C@H]1C(=O)Nc1ccc(OC)cc1
7.33
